Assay: AUC (0 to t) in Sprague-Dawley rat at 10 mg/kg, po measured for 0.083 to 24 hrs by LC-MS/MS analysis
Format: ADME, organism-based
Settings: in vivo, time 0.083-24 hrs
measurement-kind: AUC(0-t) (ng·h/mL)
Could you give me the number in ng·h/mL? Just the number is fine.

What does the record list as AUC(0-t) for [2H]C([2H])([2H])c1cc(C#N)cc(C([2H])([2H])[2H])c1Oc1nc(NC2CCN(Cc3ccc(S(N)(=O)=O)cc3)CC2)nc2ccsc12 ?
1720

----------
Assay: Metabolic stability in human liver microsomes assessed as half life at 1 uM measured up to 45 mins by LC/MS/MS analysis
Type: ADME, Microsome
Settings: liver microsomes
Labelling field: enter T if recorded half-life at 1 µM is less than 20 min. Enter F if it equals or exceeds that cut-off.

Reference set, count: 4
[2H]C([2H])([2H])c1cc(/C=C/C#N)cc(C)c1Nc1ccnc(Nc2ccc(C#N)cc2)n1 T
[2H]C([2H])([2H])c1cc(/C=C/C#N)cc(C([2H])([2H])[2H])c1Nc1ccnc(Nc2ccc(C#N)cc2)n1 F
[2H]C([2H])([2H])c1cc(-c2ccc(C#N)cc2)cc(C([2H])([2H])[2H])c1Nc1ccnc(Nc2ccc(C#N)cc2)n1 T
[2H]C([2H])([2H])c1cc(-c2ccc(C#N)cc2)cc(C)c1Nc1ccnc(Nc2ccc(C#N)cc2)n1 T

Attention now turns to another entry.
Report whether reported half-life at 1 µM is lower than 20 min (strictly) for Cc1cc(/C=C/C#N)cc(C)c1Nc1ccnc(Nc2ccc(C#N)cc2)n1
T

----------
Test: AUC (0 to t) in Sprague-Dawley rat at 1 mg/kg, iv measured for 0.083 to 24 hrs by LC-MS/MS analysis
Type: ADME, organism-based
Details: in vivo, time 0.083-24 hrs
measurement-kind: AUC(0-t) (µg·h/mL)
Please reply with the bare figure in µg·h/mL and do not write the unit itself.

Given the molecule [2H]C([2H])([2H])c1cc(C#N)cc(C([2H])([2H])[2H])c1Oc1nc(NC2CCN(Cc3ccc(S(N)(=O)=O)cc3)CC2)nc2ccsc12 , what is its reported AUC(0-t)?
0.727

----------
Assay: Tmax in Sprague-Dawley rat at 10 mg/kg, po measured for 0.083 to 24 hrs by LC-MS/MS analysis
Format: ADME, organism-based
Details: in vivo, time 0.083-24 hrs
measurement-kind: Tmax (min)
Numbers only here, please. The scale is min.

Returns the measured Tmax for the input compound. Input: [2H]C([2H])([2H])c1cc(C#N)cc(C([2H])([2H])[2H])c1Oc1nc(NC2CCN(Cc3ccc(S(N)(=O)=O)cc3)CC2)nc2ccsc12
30

----------
Target: Cytochrome P450 2C9 (Homo sapiens, UniProt P11712)
Sequence (P11712 whole entry): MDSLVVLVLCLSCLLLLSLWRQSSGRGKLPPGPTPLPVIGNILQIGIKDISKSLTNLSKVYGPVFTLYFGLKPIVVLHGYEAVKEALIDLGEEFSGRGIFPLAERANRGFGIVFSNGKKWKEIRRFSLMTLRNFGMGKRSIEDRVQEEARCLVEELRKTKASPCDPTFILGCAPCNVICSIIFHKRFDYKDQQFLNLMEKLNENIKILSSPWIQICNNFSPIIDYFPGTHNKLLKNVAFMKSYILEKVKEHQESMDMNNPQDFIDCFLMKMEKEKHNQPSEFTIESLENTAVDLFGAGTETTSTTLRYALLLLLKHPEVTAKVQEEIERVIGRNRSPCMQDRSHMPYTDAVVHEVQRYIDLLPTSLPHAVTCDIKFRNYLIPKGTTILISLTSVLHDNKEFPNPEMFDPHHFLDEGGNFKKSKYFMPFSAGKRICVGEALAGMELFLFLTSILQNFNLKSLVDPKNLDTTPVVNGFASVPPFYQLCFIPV
pIC50: −log10 of the molar value.
measurement-kind: pIC50

Form field - read-out: pIC50; system: Cytochrome P450 2C9 (Homo sapiens, UniProt P11712); submitted item: [2H]C([2H])([2H])c1cc(C#N)cc(C([2H])([2H])[2H])c1Oc1nc(NC2CCN(Cc3ccc(S(N)(=O)=O)cc3)CC2)nc2ccsc12
< 5.00

----------
Assay: AUC (0 to infinity) in Sprague-Dawley rat at 1 mg/kg, iv measured for 0.083 to 24 hrs by LC-MS/MS analysis
Assay type: ADME, organism-based
Details: in vivo, time 0.083-24 hrs
measurement-kind: AUC(0-inf) (µg·h/mL)
Express the result in µg·h/mL but write the number alone.

Reported AUC(0-inf), compound [2H]C([2H])([2H])c1cc(C#N)cc(C([2H])([2H])[2H])c1Oc1nc(NC2CCN(Cc3ccc(S(N)(=O)=O)cc3)CC2)nc2ccsc12 : ____
0.729
